Values from patent US5225528A

- Target system: uterine OT receptors (Rattus norvegicus, UniProt P70536)
- Construct: from tissue; host or cells: uterus of DES-treated rats, crude membranes
- Protocol notes: [^3 H]OT binding to uterine OT receptors, crude membrane preparation of uteri from DES-treated rats
- Measurement parameters: 1 h; @ 100 (nM); read-out: [^3 H]OT: percent inhibition of radioligand at the given concentration
Square brackets hold non-standard residues; d marks the D form. Peptide text beside a SMILES is read from it. * marks the point of attachment. d2Nal = N[C@H](Cc1ccc2ccccc2c1)C(=O)O; dNMeY = CN[C@H](Cc1ccc(O)cc1)C(=O)O; dNMeF = CN[C@H](Cc1ccccc1)C(=O)O; Pip = O=C(O)[C@@H]1CCCCN1; dPip = O=C(O)[C@H]1CCCCN1; Boc = CC(C)(C)OC(=O)*; Bn = c1ccc(C*)cc1
Recorded inhibition at 0.1 µM values for a group of molecules are listed next.

Molecule: CC[C@H](C)[C@@H]1NC(=O)[C@@H](Cc2ccc3ccccc3c2)NC(=O)[C@@H]2CCCN2C(=O)[C@@H](Cc2ccccc2)N(C)C(=O)[C@H](CCCCNC(=O)OC(C)(C)C)NC(=O)[C@H]2CCCCN2C1=O [Example 138] (cyclo(I[dPip]K(Boc)[dNMeF]P[d2Nal]))
inhibition at 0.1 µM: 50%
--
Molecule: CC[C@H](C)[C@@H]1NC(=O)[C@@H](Cc2ccccc2)NC(=O)[C@@H]2CCCN2C(=O)[C@@H](Cc2ccc(OCc3ccccc3)cc2)N(C)C(=O)[C@@H]2CCCCN2C(=O)[C@H]2CCCCN2C1=O [Example 28] (cyclo(I[dPip][Pip][dNMeY](Bn)P[dF]))
inhibition at 0.1 µM: 28%

---

- Target system: AVP-V1 sites (Rattus norvegicus, UniProt P30560)
- Construct: crude membrane preparation of male rat liver (AVP-V1 sites); from tissue; host or cells: male rat liver, crude membranes
- Sequence (P30560 whole entry): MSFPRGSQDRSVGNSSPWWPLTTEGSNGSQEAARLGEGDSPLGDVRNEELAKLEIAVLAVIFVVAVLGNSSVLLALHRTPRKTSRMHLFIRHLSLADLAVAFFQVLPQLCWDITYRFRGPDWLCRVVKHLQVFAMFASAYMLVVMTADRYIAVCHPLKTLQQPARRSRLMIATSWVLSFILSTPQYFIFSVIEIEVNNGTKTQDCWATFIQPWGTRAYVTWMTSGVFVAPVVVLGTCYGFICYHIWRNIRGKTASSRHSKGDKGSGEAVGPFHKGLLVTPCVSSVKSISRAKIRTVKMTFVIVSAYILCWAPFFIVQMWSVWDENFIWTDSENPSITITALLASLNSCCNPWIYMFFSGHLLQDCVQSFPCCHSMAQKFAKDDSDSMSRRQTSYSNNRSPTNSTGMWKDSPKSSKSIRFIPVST
- Protocol notes: [^3 H]AVP binding to crude membrane preparation of male rat liver (AVP-V1 sites)
- Measurement parameters: Receptor Binding Results IC50 (nM) [^3 H]-AVP-V1
Counter-ions that a name gives are not always drawn. Numbered stars: 1 amine (or outer) side, 2 acyl side, 3 side chain; on linkers, the order of the positions; unused ones are H or OH. Square brackets hold non-standard residues; d marks the D form. Peptide text beside a SMILES is read from it. * marks the point of attachment. X4 = O=C([C@@H](Cc1cn(COCc2ccccc2)cn1)N[*:1])[*:2]; Pip(4-aza) = O=C(O)[C@@H]1CNCCN1; Pip = O=C(O)[C@@H]1CCCCN1; dPip = O=C(O)[C@H]1CCCCN1; Nle = CCCC[C@H](N)C(=O)O; Orn = NCCC[C@H](N)C(=O)O; Boc = CC(C)(C)OC(=O)*
Each record here notes measured IC50.

Compound: CCCC[C@@H]1NC(=O)[C@@H](Cc2c[nH]c3ccccc23)NC(=O)[C@@H]2CCCN2C(=O)[C@@H](Cc2c[nH]cn2)NC(=O)[C@@H]2CCCCN2C(=O)[C@H]2CCCCN2C1=O [Example 20] (cyclo([Nle][dPip][Pip][dH]P[dW]))
Value relation sign: >
IC50 [nM]: 1000
--
Compound: CC[C@H](C)[C@@H]1NC(=O)[C@@H](Cc2c[nH]c3ccccc23)NC(=O)[C@@H]2CCCN2C(=O)[C@@H](Cc2ccccc2)NC(=O)[C@@H]2CNCCN2C(=O)[C@H]2CCCCN2C1=O [Example 87] (cyclo(I[dPip][Pip(4-aza)][dF]P[dW]))
Value relation sign: >
IC50 [nM]: 10000
--
Compound: CC[C@H](C)[C@@H]1NC(=O)[C@@H](Cc2ccccc2)NC(=O)[C@@H]2CCCN2C(=O)[C@@H](Cc2cn(COCc3ccccc3)cn2)NC(=O)[C@@H]2CNCCN2C(=O)[C@H]2CCCCN2C1=O [Example 176] (cyclo([dF]I[dPip][Pip(4-aza)][X4]P))
Value relation sign: =
IC50 [nM]: 10000
--
Compound: CC[C@H](C)[C@@H]1NC(=O)[C@@H](Cc2c[nH]c3ccccc23)NC(=O)[C@@H]2CCCN2C(=O)[C@@H](Cc2c[nH]cn2)NC(=O)[C@H](CCCNC(=O)OC(C)(C)C)NC(=O)[C@H]2CCCCN2C1=O [Example 129, acetate salt] (cyclo(I[dPip][Orn](Boc)[dH]P[dW]))
Value relation sign: =
IC50 [nM]: 10000

---

- Target system: AVP-V2 sites (Rattus norvegicus)
- Construct: male rat liver (AVP-V1 sites) or kidney medulla (AVP-V2 sites); from tissue; host or cells: male rat kidney medulla, crude membranes
- Sequence (Q00788 whole entry): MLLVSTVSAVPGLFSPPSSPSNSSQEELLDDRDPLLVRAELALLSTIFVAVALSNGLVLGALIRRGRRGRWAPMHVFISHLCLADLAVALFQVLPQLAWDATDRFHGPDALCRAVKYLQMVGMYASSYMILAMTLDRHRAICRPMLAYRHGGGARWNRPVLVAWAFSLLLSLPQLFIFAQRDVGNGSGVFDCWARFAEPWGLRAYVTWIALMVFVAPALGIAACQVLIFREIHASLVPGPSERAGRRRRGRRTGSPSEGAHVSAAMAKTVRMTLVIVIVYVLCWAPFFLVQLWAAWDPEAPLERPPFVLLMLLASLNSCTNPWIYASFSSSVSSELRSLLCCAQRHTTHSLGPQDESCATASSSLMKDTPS
- Protocol notes: [^3 H]AVP binding to crude membrane preparation of male rat kidney medulla (AVP-V2 sites)
- Measurement parameters: read-out: Receptor Binding Results IC50 (nM) [^3 H]-AVP-V2
Numbered stars: 1 amine (or outer) side, 2 acyl side, 3 side chain; on linkers, the order of the positions; unused ones are H or OH. Square brackets hold non-standard residues; d marks the D form. Peptide text beside a SMILES is read from it. dPip(4-aza,4-Cbz) = O=C(O)[C@H]1CN(C(=O)OCc2ccccc2)CCN1; dPiz(1,6-dehydro) = O=C(O)[C@H]1CCC=NN1; Ethylenediamine = C(CN[*:2])N[*:1]; X6 = O=C([C@H]1CCCNN1[*:1])[*:2]; dNMeF = CN[C@H](Cc1ccccc1)C(=O)O; hPhe = N[C@@H](CCc1ccccc1)C(=O)O; Pip = O=C(O)[C@@H]1CCCCN1; dPip = O=C(O)[C@H]1CCCCN1
List of log10(IC50) values.
Readout label: log10(IC50) (log10 of the value in nM)

Compound: CC[C@H](C)[C@@H]1NC(=O)[C@@H](Cc2ccccc2)NC(=O)[C@@H]2CCCN2C(=O)[C@@H](Cc2ccccc2)N(C)C(=O)[C@H](CCCNC(=N)N)NC(=O)[C@H]2CCC=NN2C1=O [Example 131] (cyclo(I[dPiz(1,6-dehydro)]R[dNMeF]P[dF]))
log10(IC50): 2.70
//
Compound: CC[C@H](C)[C@@H]1NC(=O)C(Cc2c[nH]c3ccc(F)cc23)NC(=O)[C@@H]2CCCN2C(=O)[C@@H](Cc2c[nH]cn2)NC(=O)[C@@H]2CCCCN2C(=O)[C@H]2CCCCN2C1=O (single isomer, unassigned)
log10(IC50): 4.41
//
Compound: CC[C@H](C)[C@@H]1NC(=O)[C@@H](Cc2ccccc2)NC(=O)[C@@H]2CCCN2C(=O)[C@@H](Cc2ccccc2)N(C)C(=O)[C@H](CC(=O)NCCN)NC(=O)[C@H]2CCCCN2C1=O [Example 119] (cyclo(D(Ethylenediamine)[dNMeF]P[dF]I[dPip]))
log10(IC50): 3.49
//
Compound: CC[C@H](C)[C@@H]1NC(=O)[C@@H](Cc2ccccc2)NC(=O)[C@@H]2CCCN2C(=O)[C@@H](Cc2ccccc2)NC(=O)[C@H]2CN(C(=O)OCc3ccccc3)CCN2C(=O)[C@H]2CCCCN2C1=O [Example 76] (cyclo(I[dPip][dPip(4-aza,4-Cbz)][dF]P[dF]))
log10(IC50): 4.03
//
Compound: CN1C(=O)[C@@H]2CCCCN2C(=O)[C@H]2CCCCN2C(=O)[C@H](CCc2ccccc2)NC(=O)[C@@H](Cc2ccccc2)NC(=O)[C@@H]2CCCN2C(=O)[C@H]1Cc1ccccc1 [Example 135] (cyclo(P[dF][hPhe][dPip][Pip][dNMeF]))
log10(IC50): 3.70
//
Compound: CC[C@H](C)[C@@H]1NC(=O)[C@@H](Cc2ccccc2)NC(=O)[C@@H]2CCCN2C(=O)[C@@H](Cc2ccccc2)N(C)C(=O)[C@H](CCCCN)NC(=O)[C@H]2CCC=NN2C1=O [Example 174] (cyclo(I[dPiz(1,6-dehydro)]K[dNMeF]P[dF]))
log10(IC50): 2.76
//
Compound: CN1C(=O)[C@@H]2CCCCN2C(=O)[C@H]2CCCCN2C(=O)[C@H](Cc2ccccc2)NC(=O)[C@@H](Cc2ccccc2)NC(=O)[C@@H]2CCCN2C(=O)[C@H]1Cc1ccccc1 [Example 136] (cyclo(F[dPip][Pip][dNMeF]P[dF]))
log10(IC50): 3.90
//
Compound: CC[C@H](C)[C@@H]1NC(=O)[C@@H](Cc2ccccc2)NC(=O)[C@@H]2CCCN2C(=O)[C@@H](Cc2ccccc2)N(C)C(=O)[C@@H]2CCCCN2C(=O)[C@H]2CCCNN2C1=O [Example 111] (cyclo(I[X6][Pip][dNMeF]P[dF]))
log10(IC50): 3.54

---

Catalogue of log10 IC50 readings, one per entry.
- Target system: uterine OT receptors (Rattus norvegicus, UniProt P70536)
- Construct: from tissue; host or cells: uterus of DES-treated rats, crude membranes
- Sequence (P70536 1-388): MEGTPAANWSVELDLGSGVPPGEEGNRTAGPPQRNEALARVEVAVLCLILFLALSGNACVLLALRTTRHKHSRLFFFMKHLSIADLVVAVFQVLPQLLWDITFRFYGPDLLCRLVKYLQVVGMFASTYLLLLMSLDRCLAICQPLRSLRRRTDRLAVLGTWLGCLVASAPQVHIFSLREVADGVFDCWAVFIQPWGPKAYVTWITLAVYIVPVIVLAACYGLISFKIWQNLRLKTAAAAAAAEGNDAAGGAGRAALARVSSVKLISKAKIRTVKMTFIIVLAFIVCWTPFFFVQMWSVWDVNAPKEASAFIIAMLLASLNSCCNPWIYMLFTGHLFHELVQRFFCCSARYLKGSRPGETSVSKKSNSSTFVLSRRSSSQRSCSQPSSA
- Protocol notes: [^3 H]OT binding to uterine OT receptors, crude membrane preparation of uteri from DES-treated rats
- Measurement parameters: rat uterus membranes, 1 nM [^3 H]OT; read-out: Receptor Binding Results IC50 (nM) [^3 H]OT
Numbered stars: 1 amine (or outer) side, 2 acyl side, 3 side chain; on linkers, the order of the positions; unused ones are H or OH. Square brackets hold non-standard residues; d marks the D form. Peptide text beside a SMILES is read from it. dPip(4-aza,4-Cbz) = O=C(O)[C@H]1CN(C(=O)OCc2ccccc2)CCN1; X2 = O=C(OCc1ccccc1)N1CCN([*:1])[C@H](C(=O)[*:2])C1; X10 = O=C(O)CN1CCN([*:1])[C@H](C(=O)[*:2])C1; d2Nal = N[C@H](Cc1ccc2ccccc2c1)C(=O)O; dNMeF = CN[C@H](Cc1ccccc1)C(=O)O; dPip = O=C(O)[C@H]1CCCCN1
Readout label: log10 IC50 (log10 of the value in nM)

Compound: CC[C@H](C)[C@@H]1NC(=O)[C@@H](Cc2c[nH]c3ccccc23)NC(=O)[C@@H]2CCCN2C(=O)[C@@H](Cc2ccccc2)N(C)C(=O)[C@@H]2CN(CC(=O)O)CCN2C(=O)[C@H]2CCCCN2C1=O [Example 181] (cyclo(I[dPip][X10][dNMeF]P[dW]))
Readout label: log10 IC50
Numeric value: 2.00
//
Compound: CC[C@H](C)[C@@H]1NC(=O)[C@@H](Cc2c[nH]c3ccccc23)NC(=O)[C@@H]2CCCN2C(=O)[C@@H](Cc2ccccc2)N(C)C(=O)[C@H]2CN(C(=O)OCc3ccccc3)CCN2C(=O)[C@H]2CCCCN2C1=O [Example 91] (cyclo(I[dPip][dPip(4-aza,4-Cbz)][dNMeF]P[dW]))
Readout label: log10 IC50
Numeric value: 1.97
//
Compound: CC[C@H](C)[C@@H]1NC(=O)[C@@H](Cc2ccccc2)NC(=O)[C@@H]2CCCN2C(=O)[C@@H](Cc2ccccc2)NC(=O)[C@@H]2CN(C(=O)OCc3ccccc3)CCN2C(=O)[C@H]2CN(C(=O)OCc3ccccc3)CCN2C1=O [Example 79] (cyclo(I[dPip(4-aza,4-Cbz)][X2][dF]P[dF]))
Readout label: log10 IC50
Numeric value: 3.23
//
Compound: CC[C@H](C)[C@@H]1NC(=O)[C@@H](Cc2ccccc2)NC(=O)[C@@H]2CCCN2C(=O)[C@@H](Cc2ccccc2)NC(=O)[C@H](CC(N)=O)NC(=O)[C@H](CCC(N)=O)NC1=O [Example 100] (cyclo([dF]IQN[dF]P))
Readout label: log10 IC50
Numeric value: 3.71
//
Compound: CC[C@H](C)[C@@H]1NC(=O)[C@@H](Cc2ccc3ccccc3c2)NC(=O)[C@@H]2CCCN2C(=O)[C@@H](Cc2ccccc2)N(C)C(=O)[C@H](CCCCN)NC(=O)[C@H]2CCCCN2C1=O [Example 141] (cyclo([d2Nal]I[dPip]K[dNMeF]P))
Readout label: log10 IC50
Numeric value: 1.65
